Test: Pharmacokinetics after repeated-dose intragastric administration in rats
Type: in vivo, Sprague Dawley rats
Details: Sprague Dawley, rat, plasma, po; female rats, R-IG 6.5 mg/kg, 14 days
Parameter Measured: MRT at 14 days (h)
Numbers only here, please. The scale is h.

Q. Please look up its MRT at 14 days: CC1(C)OC2CC(=O)OCC23C1C/C(=N\OCCN1CCOCC1)C1(C)C3CC[C@@]2(C)[C@H](c3ccoc3)OC(=O)C3OC312 (stereo partly shown)
A. 2.18

* * *

Assay: Pharmacokinetics after repeated-dose intragastric administration in beagle dogs
Assay type: in vivo
Conditions: both sexes, dog, plasma, po, R-IG 2.5 mg/kg, 7 d
Parameter Measured: CL/F at 7 d (mL/min/kg)
Enter your answer as a number in mL/min/kg; do not include the unit.

Q. Look up CL/F at 7 d for this compound: CC1(C)OC2CC(=O)OCC23C1C/C(=N\OCCN1CCOCC1)C1(C)C3CC[C@@]2(C)[C@H](c3ccoc3)OC(=O)C3OC312 (stereo partly shown)
A. 32.3

The measurements presented in this section are drawn from paper PMC9316000.
